experiment: Agonist activity at Escherichia coli DH5alpha LasR receptor by beta-galctosidase reporter gene assay; type: functional
measurement_kind: pEC50
Answers are plain numbers, as −log10 of the molar value.

Study these solved cases before continuing.
>  <structure>
O=C(Cc1cc(C(F)(F)F)cc(C(F)(F)F)c1)N[C@H]1CCOC1=O

>  <measurement_kind>
pEC50

>  <value_observed>
5.20

$$$$
>  <structure>
CCCCCCCCCC(=O)CC(=O)N[C@H]1CCOC1=O

>  <measurement_kind>
pEC50

>  <value_observed>
8.00

$$$$

Now consider a different molecule.
For the molecule O=C(COc1ccc(OC(F)(F)F)cc1)N[C@H]1CCOC1=O , give its measured pEC50 value.
5.20

Data provenance is ChEMBL document CHEMBL1154499.
